The reader will find reported Kd values listed item by item below.
- PROCEDURE_SUMMARY: Probe calibration by titration with FFA / FFA-BSA complexes: POA
- Assay type: binding
- CONDITION_SET: equilibrium dissociation constant of probe for POA
// note: answer is a bare numeric in nM

ADIFAB2: acrylodan-labeled (lysine 27) mutant FABP probe: L72A (protein, UniProt P02693 2-132, looked up, variant L72A, acrylodan label on K27, acrylodan-labeled (lysine 27) mutant FABP probe: L72A) Fatty acid-binding protein, …: AFDGTWKVDRNENYEKFMEKMGINVVKRKLGAHDNLKLTITQEGNKFTVKESSNFRNIDVVFELGVDFAYSAADGTELTGTWTMEGNKLVGKFKRVDNGKELIAVREISGNELIQTYTYEGVEAKRIFKKE    257
L1P8 H2: acrylodan-labeled mutant FABP probe: Y14M, L38M, L72W (protein, UniProt P02693 2-132, looked up, variant Y14M L38M L72W, acrylodan label, acrylodan-labeled mutant FABP probe: Y14M, L38M, L72W) Fatty acid-binding protein, …: AFDGTWKVDRNENMEKFMEKMGINVVKRKLGAHDNLKMTITQEGNKFTVKESSNFRNIDVVFELGVDFAYSWADGTELTGTWTMEGNKLVGKFKRVDNGKELIAVREISGNELIQTYTYEGVEAKRIFKKE    209

Pending molecule:
Challenge: I would be grateful if you could share the reported Kd for L10P7 A4 L30C: acrylodan-labeled mutant FABP probe: Y14L, M18L, K27A, L30C, G31Y, A73L, Y117A (protein, UniProt P02693 2-132, looked up, variant Y14L M18L K27A L30C G31Y A73L Y117A, acrylodan label, acrylodan-labeled mutant FABP probe: Y14L, M18L, K27A, L30C, G31Y, A73L, Y117A) Fatty acid-binding protein, …: AFDGTWKVDRNENLEKFLEKMGINVVARKCYAHDNLKLTITQEGNKFTVKESSNFRNIDVVFELGVDFAYSLLDGTELTGTWTMEGNKLVGKFKRVDNGKELIAVREISGNELIQTATYEGVEAKRIFKKE .
Response given: 5.5
